Recorded measurements of Selectivity v. Coll-3, one per entry
- Assayed System: T1, collagenase 1 (UniProt P03956 100-469, limits assumed)
- T1 sequence (looked up): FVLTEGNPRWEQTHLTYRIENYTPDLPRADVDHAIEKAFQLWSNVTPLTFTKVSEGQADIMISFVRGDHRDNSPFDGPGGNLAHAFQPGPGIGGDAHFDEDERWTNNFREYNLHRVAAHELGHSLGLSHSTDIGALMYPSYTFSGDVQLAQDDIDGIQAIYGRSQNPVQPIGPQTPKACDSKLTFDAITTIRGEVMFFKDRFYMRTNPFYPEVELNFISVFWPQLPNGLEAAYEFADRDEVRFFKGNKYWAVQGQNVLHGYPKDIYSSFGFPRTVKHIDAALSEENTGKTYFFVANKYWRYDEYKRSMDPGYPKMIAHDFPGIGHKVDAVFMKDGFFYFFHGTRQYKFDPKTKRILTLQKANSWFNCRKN
- Protocol Text: cell-based or functional assay
*1 amine or outer side, *2 acyl side, *3 side chain or, on linkers, in order; H or OH if unused. [ ]: non-standard residue; d: D form. The star is where a group is joined. Dnp = O=[N+]([O-])c1ccc(*)c([N+](=O)[O-])c1; C(Me) = CSC[C@H](N[*:1])C(=O)[*:2]
The reply should contain only the number, in unitless.

Observe how each entry below is paired with its result.
{"columns": ["Binder", "Measured Property", "Value Measured"],
 "data": [
  ["Dnp-GPHPMRG-NH2 (SMILES CSCC[C@H](NC(=O)[C@@H]1CCCN1C(=O)[C@H](Cc1c[nH]cn1)NC(=O)[C@@H]1CCCN1C(=O)CNc1ccc([N+](=O)[O-])cc1[N+](=O)[O-])C(=O)N[C@@H](CCCNC(=N)N)C(=O)NCC(N)=O) [Dnp-GPHPMRG-NH2]", "Selectivity v. Coll-3", 526],
  ["Dnp-GPAPFRG[C(Me)]-NH2 (SMILES CSC[C@H](NC(=O)CNC(=O)[C@H](CCCNC(=N)N)NC(=O)[C@H](Cc1ccccc1)NC(=O)[C@@H]1CCCN1C(=O)[C@H](C)NC(=O)[C@@H]1CCCN1C(=O)CNc1ccc([N+](=O)[O-])cc1[N+](=O)[O-])C(N)=O) [Dnp-GPAPFRGC(Me)-NH2]", "Selectivity v. Coll-3", 4420]
]}

Now for a further binder.
stdin: For the binder Dnp-GPSGIHV-NH2 (SMILES CC[C@H](C)[C@H](NC(=O)CNC(=O)[C@H](CO)NC(=O)[C@@H]1CCCN1C(=O)CNc1ccc([N+](=O)[O-])cc1[N+](=O)[O-])C(=O)N[C@@H](Cc1c[nH]cn1)C(=O)N[C@H](C(N)=O)C(C)C) [Dnp-GPSGIHV-NH2] , give its measured Selectivity v. Coll-3 value.
stdout: 1430
